We begin with pIC50 values for Cathepsin G (Homo sapiens, UniProt P08311), as collected from the published literature.
pIC50: −log10 of the molar value.

Examples from the recorded data:
CCCCCCCCNC(=O)C(=O)C(CC)NC(=O)C(CC(C)C)NC(=O)OCc1ccccc1 (stereo not shown)    < 3.66
COC(=O)CCC(=O)N[C@@H](C)C(=O)N[C@@H](C)C(=O)N1CCC[C@H]1C(=O)N[C@H](c1nc2cccc(C)c2c(=O)o1)C(C)C    4.82
COC(=O)c1ccc(NS(=O)(=O)c2sc3ccc(Cl)cc3c2C)c(OC)c1    < 6.00
Cc1cccc2nc([C@@H](NC(=O)COC3c4ccccc4-c4ccccc43)C(C)C)oc(=O)c12    < 4.56
CC(C)C[C@H](NC(=O)OCc1ccccc1)C(=O)N[C@@H](Cc1ccccc1)C(=O)C(=O)NCC(O)c1cccc(Oc2cccc(C(F)(F)F)c2)c1 (stereo partly shown)    4.10
CC[C@H](NC(=O)[C@H](CC(C)C)NC(=O)OCc1ccccc1)C(=O)C(=O)NCC(O)c1ccc(OCc2ccccc2)cc1 (stereo partly shown)    < 3.99

We next turn to a different compound, shown below.
Task item: Fill in: pIC50 of Cc1cccc2nc([C@@H](NC(=O)OCC3c4ccccc4-c4ccccc43)C(C)C)oc(=O)c12 is ___
Reply: < 5.26

====

pIC50: −log10 of the molar value.
We begin with pIC50 values for Cathepsin G (Homo sapiens, UniProt P08311), as collected from the published literature.

Examples from the recorded data:
Cc1cccc2nc([C@@H](NC(=O)[C@@H]3CCCN3C(=O)/C=C/c3ccccc3)C(C)C)oc(=O)c12    < 3.70
CCOC(=O)c1ccc(NS(=O)(=O)c2sc3ccc(Cl)cc3c2C)cc1    < 5.00
CC[C@H](NC(=O)[C@H](CC(C)C)NC(=O)OCc1ccccc1)C(=O)C(=O)NCC(O)c1ccc(N(C)C)cc1 (stereo partly shown)    < 3.69

We next turn to a different compound, shown below.
Task item: Fill in: pIC50 of Cc1cccc2nc([C@@H](NC(=O)[C@@H]3C[C@@H](O)CN3C(=O)OCc3ccccc3)C(C)C)oc(=O)c12 is ___
Reply: < 3.70

====

We begin with IC50 values for Cathepsin G (Homo sapiens), as collected from the published literature.
Consider the cut-off 60 µM. If the recorded IC50 is strictly smaller, the label is 1.0; if not, the label is 0.0.

Answered cases to consult:
CCCNC(=O)C(=O)C(CC)NC(=O)C(CC(C)C)NC(=O)OCc1ccccc1 (centres unmarked)    0.0
CC(C)CC(NC(=O)OCc1ccccc1)C(=O)NC(Cc1ccccc1)C(=O)C(=O)NCCc1ccccc1 (centres unmarked)    0.0
CC(C)C[C@H](NC(=O)OCc1ccccc1)C(=O)N[C@@H](Cc1ccccc1)C(=O)C(=O)NCC(O)c1ccc(N(C)C)cc1 (some centres unmarked)    1.0

Task item: Is IC50 strictly under 60 µM for the entry CC(C)CNC(=O)C(=O)C(Cc1ccccc1)NC(=O)C(CC(C)C)NC(=O)OCc1ccccc1 (centres unmarked) ?
Reply: 1.0

Task item: Is IC50 strictly under 60 µM for the entry CCC(NC(=O)C(CC(C)C)NC(=O)OCc1ccccc1)C(=O)C(=O)NCC(C)C (centres unmarked) ?
Reply: 0.0

Task item: Is IC50 strictly under 60 µM for the entry Cc1cccc2nc([C@@H](NC(=O)CNC(=O)C3c4ccccc4-c4ccccc43)C(C)C)oc(=O)c12 ?
Reply: 1.0

Task item: Is IC50 strictly under 60 µM for the entry CC(C)CC(NC(=O)OCc1ccccc1)C(=O)NC(Cc1ccccc1)C(=O)C(=O)NCC(O)c1ccc(OCc2ccccc2)cc1 (centres unmarked) ?
Reply: 1.0

Task item: Is IC50 strictly under 60 µM for the entry CC(C)CC(NC(=O)OCc1ccccc1)C(=O)NC(Cc1ccccc1)C(=O)C(=O)NCc1ccccc1 (centres unmarked) ?
Reply: 0.0

Task item: Is IC50 strictly under 60 µM for the entry Cc1cccc2nc([C@@H](NC(=O)[C@@H]3CCCN3C(=O)CCc3ccccc3)C(C)C)oc(=O)c12 ?
Reply: 0.0

Task item: Is IC50 strictly under 60 µM for the entry CC(C)CC(NC(=O)OCc1ccccc1)C(=O)NC(Cc1ccccc1)C(=O)C(=O)NCCCN1CCOCC1 (centres unmarked) ?
Reply: 0.0
